Record form. Attribute: IC50 (neutralization). Fill in for each entry.
system.name: HIV-1 Env of isolate MGRM-F1-004 (subtype F) (HIV-1)
procedure.text: cell-based or functional assay
Give the value, in units of µg/mL, as a plain number.

// query IC50 (neutralization) value for entry PGT-125 (antibody, V domains shown) VH: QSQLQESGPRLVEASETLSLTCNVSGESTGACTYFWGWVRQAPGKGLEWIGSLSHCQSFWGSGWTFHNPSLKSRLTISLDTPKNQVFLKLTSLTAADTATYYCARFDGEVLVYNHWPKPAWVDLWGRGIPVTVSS VL: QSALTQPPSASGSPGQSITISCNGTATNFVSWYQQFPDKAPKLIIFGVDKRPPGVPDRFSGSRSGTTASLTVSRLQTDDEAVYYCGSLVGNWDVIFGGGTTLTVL
0.035

Can you handle PGT-126 (antibody, V domains shown) VH: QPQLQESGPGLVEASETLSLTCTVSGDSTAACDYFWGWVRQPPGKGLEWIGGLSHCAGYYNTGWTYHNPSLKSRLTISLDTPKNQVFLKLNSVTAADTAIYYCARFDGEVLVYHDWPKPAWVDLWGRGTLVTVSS VL: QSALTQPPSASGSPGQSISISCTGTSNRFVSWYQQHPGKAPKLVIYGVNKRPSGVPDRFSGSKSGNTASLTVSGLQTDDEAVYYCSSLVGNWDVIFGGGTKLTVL next?
0.063

Hello, the source for this data is patent US20160264649A1, in case you need it.
